Assay: Oral bioavailability in Sprague-Dawley rat at 4 mg/kg
Assay type: ADME, organism-based
Details: in vivo
assay_endpoint: bioavailability (%)

> print(dat)
                         structure.notation  unit.text  measured
1  Cc1cc2cn[nH]c2cc1-c1cccc2c(N)c(C(N)=O)nnc12          %        70
2      Cn1cc(-c2cccc3c(N)c(C(N)=O)nnc23)cn1          %        35

====

Experiment: Volume of distribution at steady state in beagle dog at 1 mg/kg, iv and 10 mg/kg, po
Assay type: ADME, organism-based, Canis lupus familiaris
Conditions: in vivo, read-out: Vdss
assay_endpoint: Vd (L/kg)

> print(dat)
                         structure.notation  unit.text  measured
1  Cc1cc2cn[nH]c2cc1-c1cccc2c(N)c(C(N)=O)nnc12       L/kg       1.1

====

Target: Activated CDC42 kinase 1 (Homo sapiens)
Sequence (Q07912 whole entry): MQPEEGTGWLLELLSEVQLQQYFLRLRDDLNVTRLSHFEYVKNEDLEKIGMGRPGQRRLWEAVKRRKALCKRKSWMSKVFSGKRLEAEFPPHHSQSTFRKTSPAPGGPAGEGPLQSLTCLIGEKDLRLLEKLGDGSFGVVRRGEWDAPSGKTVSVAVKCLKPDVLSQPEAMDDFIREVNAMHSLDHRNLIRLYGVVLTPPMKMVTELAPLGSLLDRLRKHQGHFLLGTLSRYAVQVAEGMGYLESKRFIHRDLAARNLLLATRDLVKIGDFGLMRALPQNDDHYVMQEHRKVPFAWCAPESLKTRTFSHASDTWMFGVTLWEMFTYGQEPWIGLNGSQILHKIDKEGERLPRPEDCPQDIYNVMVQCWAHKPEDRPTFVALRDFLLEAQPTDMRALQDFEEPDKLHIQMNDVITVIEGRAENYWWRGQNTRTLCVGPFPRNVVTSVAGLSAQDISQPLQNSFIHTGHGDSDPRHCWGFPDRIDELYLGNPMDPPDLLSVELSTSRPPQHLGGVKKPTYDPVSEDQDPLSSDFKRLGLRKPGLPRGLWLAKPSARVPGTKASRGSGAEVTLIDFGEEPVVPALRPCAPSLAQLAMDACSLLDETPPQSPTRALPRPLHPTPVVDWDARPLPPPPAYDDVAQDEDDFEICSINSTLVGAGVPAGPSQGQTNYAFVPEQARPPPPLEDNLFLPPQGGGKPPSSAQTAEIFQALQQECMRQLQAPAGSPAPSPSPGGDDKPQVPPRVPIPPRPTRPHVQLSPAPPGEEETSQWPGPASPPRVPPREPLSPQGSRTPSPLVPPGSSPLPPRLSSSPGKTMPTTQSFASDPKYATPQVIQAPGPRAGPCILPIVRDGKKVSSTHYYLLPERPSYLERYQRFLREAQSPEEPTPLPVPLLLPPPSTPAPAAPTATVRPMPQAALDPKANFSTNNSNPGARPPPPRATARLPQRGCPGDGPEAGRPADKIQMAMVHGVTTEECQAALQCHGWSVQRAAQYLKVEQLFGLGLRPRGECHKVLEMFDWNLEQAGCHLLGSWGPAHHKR
Assay: Inhibition of human recombinant TNK2 by LanthaScreen Binding assay
pIC50: −log10 of the molar value.
assay_endpoint: pIC50

> print(dat)
                         structure.notation  measured
1  Cc1cc2cn[nH]c2cc1-c1cccc2c(N)c(C(N)=O)nnc12      7.96

====

Test: Clearance in beagle dog at 1 mg/kg, iv and 10 mg/kg, po
Type: ADME, organism-based, Canis lupus familiaris
Details: in vivo
assay_endpoint: clearance (mL/min/kg)

> print(dat)
                         structure.notation  assay.endpoint  unit.text  measured
1  Cc1cc2cn[nH]c2cc1-c1cccc2c(N)c(C(N)=O)nnc12       clearance  mL/min/kg       8.7

====

Biological target: UniProtKB P51813
Sequence (P51813 whole entry): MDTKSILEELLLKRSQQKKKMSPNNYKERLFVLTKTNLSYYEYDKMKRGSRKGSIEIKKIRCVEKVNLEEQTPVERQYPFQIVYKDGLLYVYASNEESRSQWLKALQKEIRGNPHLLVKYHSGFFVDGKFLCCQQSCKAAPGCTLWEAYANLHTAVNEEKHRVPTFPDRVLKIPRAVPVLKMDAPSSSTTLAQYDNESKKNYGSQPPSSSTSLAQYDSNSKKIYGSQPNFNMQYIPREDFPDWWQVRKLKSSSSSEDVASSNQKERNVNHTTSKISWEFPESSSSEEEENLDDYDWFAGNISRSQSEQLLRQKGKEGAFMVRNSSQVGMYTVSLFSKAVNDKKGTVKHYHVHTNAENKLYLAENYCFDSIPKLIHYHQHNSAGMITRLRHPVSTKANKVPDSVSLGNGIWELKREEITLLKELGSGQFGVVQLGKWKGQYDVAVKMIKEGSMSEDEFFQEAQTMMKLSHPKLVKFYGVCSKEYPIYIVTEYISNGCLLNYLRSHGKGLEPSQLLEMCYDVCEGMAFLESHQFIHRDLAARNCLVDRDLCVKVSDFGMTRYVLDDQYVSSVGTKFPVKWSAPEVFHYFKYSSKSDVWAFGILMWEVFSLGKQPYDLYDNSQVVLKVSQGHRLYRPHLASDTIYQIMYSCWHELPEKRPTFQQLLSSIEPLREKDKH
Test: Inhibition of human recombinant Bmx
assay_endpoint: IC50 (nM)

> print(dat)
                         structure.notation  unit.text  measured
1  Cc1cc2cn[nH]c2cc1-c1cccc2c(N)c(C(N)=O)nnc12         nM        36

====

Assay: Volume of distribution at steady state in Sprague-Dawley rat at 1 mg/kg, iv and 4 mg/kg, po
Assay type: ADME, organism-based
Settings: in vivo, read-out: Vdss
assay_endpoint: Vd (L/kg)

> print(dat)
                         structure.notation  assay.endpoint  measured
1  Cc1cc2cn[nH]c2cc1-c1cccc2c(N)c(C(N)=O)nnc12              Vd       1.5
2      Cn1cc(-c2cccc3c(N)c(C(N)=O)nnc23)cn1              Vd       0.7

====

Target: Tyrosine-protein kinase Lyn (Homo sapiens)
Sequence (P07948 whole entry): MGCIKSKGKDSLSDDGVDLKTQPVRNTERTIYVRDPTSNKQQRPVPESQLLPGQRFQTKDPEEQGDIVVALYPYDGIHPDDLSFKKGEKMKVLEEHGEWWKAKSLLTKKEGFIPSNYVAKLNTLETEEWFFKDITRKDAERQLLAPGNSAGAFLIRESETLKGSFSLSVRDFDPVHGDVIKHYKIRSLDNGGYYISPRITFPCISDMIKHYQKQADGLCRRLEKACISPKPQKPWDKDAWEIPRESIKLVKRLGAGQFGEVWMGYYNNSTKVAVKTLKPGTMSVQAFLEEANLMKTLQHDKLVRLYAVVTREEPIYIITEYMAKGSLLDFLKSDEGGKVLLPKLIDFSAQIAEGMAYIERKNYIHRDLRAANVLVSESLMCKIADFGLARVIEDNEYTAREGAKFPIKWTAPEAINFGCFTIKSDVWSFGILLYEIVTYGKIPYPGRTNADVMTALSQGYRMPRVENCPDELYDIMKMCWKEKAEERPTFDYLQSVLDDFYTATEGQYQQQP
Test: Inhibition of human recombinant LynB
assay_endpoint: IC50 (nM)

> print(dat)
                         structure.notation  unit.text  measured
1  Cc1cc2cn[nH]c2cc1-c1cccc2c(N)c(C(N)=O)nnc12         nM        54

====

Biological target: Activin receptor type-1 (Homo sapiens, UniProt Q04771)
Sequence (Q04771 whole entry): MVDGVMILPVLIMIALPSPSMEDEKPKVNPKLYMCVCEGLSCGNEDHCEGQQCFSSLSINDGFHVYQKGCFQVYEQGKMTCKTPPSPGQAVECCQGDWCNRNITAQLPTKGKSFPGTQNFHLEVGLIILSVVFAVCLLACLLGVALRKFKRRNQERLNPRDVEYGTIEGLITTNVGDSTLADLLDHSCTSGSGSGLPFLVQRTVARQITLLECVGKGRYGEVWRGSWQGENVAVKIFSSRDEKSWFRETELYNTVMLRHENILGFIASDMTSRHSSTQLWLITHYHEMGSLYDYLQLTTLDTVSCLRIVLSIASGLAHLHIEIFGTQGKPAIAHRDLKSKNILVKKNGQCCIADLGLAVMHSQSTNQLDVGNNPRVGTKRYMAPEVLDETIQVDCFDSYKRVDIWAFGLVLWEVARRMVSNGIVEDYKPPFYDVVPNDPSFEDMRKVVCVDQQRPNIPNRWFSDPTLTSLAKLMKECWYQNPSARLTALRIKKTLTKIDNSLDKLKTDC
Test: Inhibition of human recombinant ALK2 by LanthaScreen Binding assay
assay_endpoint: IC50 (nM)

> print(dat)
                         structure.notation  assay.endpoint  unit.text  measured
1  Cc1cc2cn[nH]c2cc1-c1cccc2c(N)c(C(N)=O)nnc12            IC50         nM         7
